Target: T1, Cdc25, P04821
T1 sequence (P04821 50-136, looked up): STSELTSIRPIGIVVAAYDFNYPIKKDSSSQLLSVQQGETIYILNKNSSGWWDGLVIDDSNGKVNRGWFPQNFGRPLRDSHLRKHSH
Assay: SPOT array
Details: median of control spots 969
measure: SPOT intensity

>>> measured("HVRRSILALPLGVLL")
20
>>> measured("RKNRAPPQRPRFNRE")
30
>>> measured("PPIPNAPLSPAPAVP")
2
>>> measured("LPMNIQPDLPPRKIM")
0
>>> measured("QNTPPLPPKPKSPHL")
0

A: NSVPIMPTLPPRPYI
B: AATTSTPPLPRRRAT
C: SSAAPPPPPRRATPE
D: RRRIAYPFYPFKKLG
E: NPNRRAPRRPLSTQH
-- ask Ascending by SPOT intensity, please: list the binders accordingly. Please list each label once, in the requested order.
-- reply A, C, B, D, E

I: QTREPNEPPPPSPAM
II: KRKRRLPVSEDTNTK
-- ask Which record shows the lower SPOT intensity: the first, I , or the second, II ? Give the chosen item's label as your response.
-- reply I
(I: 0, II: 16)
